// provenance: patent US9713651B2

Assay: Tissue distribution of 18F imaging agents in rats
Format: in vivo, Male Sprague Dawley rats
Conditions: rat, iv tail vein ~15 μCi, 60 min post injection, ± SEM
property: Blood, imaging agent distribution at 60 min (% ID/g)
Kindly provide the numeric value in % ID/g only, without the unit symbol.

molecule	recorded result
CC(C)(C)n1ncc(OCc2ccc(OCCF)cc2)c(Cl)c1=O [Example 67D]	1.00
CC(C)(C)n1ncc(OCc2ccc(Oc3cccnc3F)cc2)c(Cl)c1=O [Example 67O]	0.03
CC(C)(C)n1ncc(OCc2ccc(-c3cnc(F)nc3)cc2)c(Cl)c1=O [Example 67L]	0.10

Pending molecule:
Documented Blood, imaging agent distribution at 60 min of CC(C)(C)n1ncc(CCc2ccc(COCCF)cc2)c(Cl)c1=O [Example 67M] : 0.73

---

Assay: Tissue distribution of 18F imaging agents in rats
Assay type: in vivo, Male Sprague Dawley rats
Conditions: rat, iv tail vein ~15 μCi, 60 min post injection, ± SEM
Catalogue of Heart, imaging agent distribution at 60 min values
Kindly provide the numeric value in % ID/g only, without the unit symbol.

A selection of reference data follows.
molecule	unit of measure	recorded result
CC(C)n1ncc(OCc2ccc(COCCF)cc2)c(Cl)c1=O [Example 67H]	% ID/g	0.55
CC(C)(C)n1ncc(OCc2ccc(OCCOCCF)cc2)c(Cl)c1=O [Example 67B]	% ID/g	1.58
CC(C)(C)n1ncc(CCc2ccc(COCCF)cc2)c(Cl)c1=O [Example 67M]	% ID/g	0.55
CC(C)(C)n1ncc(OCc2ccc(C#CCCF)cc2)c(Cl)c1=O [Example 67K]	% ID/g	2.46

Pending molecule:
Documented Heart, imaging agent distribution at 60 min of CC(C)(C)n1ncc(OCc2ccc(Oc3cccnc3F)cc2)c(Cl)c1=O [Example 67O] : 2.46

---

Test: Tissue distribution of 18F imaging agents in rats
Assay type: in vivo, Male Sprague Dawley rats
Details: rat, iv tail vein ~15 μCi, 60 min post injection, ± SEM
property: Brain, imaging agent distribution at 60 min (% ID/g)
Kindly provide the numeric value in % ID/g only, without the unit symbol.

compound	recorded result
CC(C)(C)n1ncc(CCc2ccc(COCCF)cc2)c(Cl)c1=O [Example 67M]	2.33

Documented Brain, imaging agent distribution at 60 min of CC(C)(C)n1ncc(OCc2ccc(Oc3cccnc3F)cc2)c(Cl)c1=O [Example 67O] : 0.36

Documented Brain, imaging agent distribution at 60 min of CC(OCCF)c1ccc(COc2cnn(C(C)(C)C)c(=O)c2Cl)cc1 (stereo not shown) [Example 67G] : 0.39

Documented Brain, imaging agent distribution at 60 min of CC(C)(C)n1ncc(OCc2ccc(OCCCF)c(Cl)c2)c(Cl)c1=O [Example 67C] : 0.44

---

Catalogue of Liver, imaging agent distribution at 60 min values
Experiment: Tissue distribution of 18F imaging agents in rats
Type: in vivo, Male Sprague Dawley rats
Conditions: rat, iv tail vein ~15 μCi, 60 min post injection, ± SEM
Experimental: Anesthetized (sodium pentobarbital at 50 mg/kg, ip or isoflurane gas inhalation) Male Sprague Dawley rats (250-350 g) received an iv injection of the imaging agent (˜15 μCi) via the tail vein. […] All samples were then weighed and counted for radioactivity (Wallac Wizard 1480 or Packard Cobra II Autogamma); regional tissue uptake of the imaging agent was thus expressed as a percentage of the total injected dose per gram of tissue (% ID/g). […]
Kindly provide the numeric value in % ID/g only, without the unit symbol.

A selection of reference data follows.
molecule	recorded result
CC(C)(C)n1ncc(OCc2cccc(OCCF)c2)c(Cl)c1=O [Example 67F]	0.39
CC(C)(C)n1ncc(OCc2ccc(C(=O)OCCF)cc2)c(Cl)c1=O [Example 67J]	0.35
CC(C)(C)n1ncc(OCc2ccc(OCCF)cc2)c(Cl)c1=O [Example 67D]	1.49
CC(C)(C)n1ncc(OCc2ccc(OCCCF)c(Cl)c2)c(Cl)c1=O [Example 67C]	0.65
CC(C)(C)n1ncc(OCc2cccc(COCCF)c2)c(Cl)c1=O [Example 67A]	0.11

Documented Liver, imaging agent distribution at 60 min of CC(C)(C)n1ncc(OCc2ccc(Oc3cccnc3F)cc2)c(Cl)c1=O [Example 67O] : 0.83

Documented Liver, imaging agent distribution at 60 min of Cc1c(OCc2ccc(COCCF)cc2)cnn(C(C)(C)C)c1=O [Example 67I] : 0.30

Documented Liver, imaging agent distribution at 60 min of CC(OCCF)c1ccc(COc2cnn(C(C)(C)C)c(=O)c2Cl)cc1 (centres unmarked) [Example 67G] : 0.32

Documented Liver, imaging agent distribution at 60 min of CC(C)(C)n1ncc(OCc2ccc(C#CCCF)cc2)c(Cl)c1=O [Example 67K] : 0.83

Documented Liver, imaging agent distribution at 60 min of CC(C)(C)n1ncc(OCc2ccc(OCCOCCF)cc2)c(Cl)c1=O [Example 67B] : 1.34

Documented Liver, imaging agent distribution at 60 min of CC(C)n1ncc(OCc2ccc(COCCF)cc2)c(Cl)c1=O [Example 67H] : 0.40

Documented Liver, imaging agent distribution at 60 min of [2H]C([2H])(OCCF)c1ccc(COc2cnn(C(C)(C)C)c(=O)c2Cl)cc1 [Example 67E] : 0.53

Documented Liver, imaging agent distribution at 60 min of CC(C)(C)n1ncc(OCc2ccc(-c3cnc(F)nc3)cc2)c(Cl)c1=O [Example 67L] : 2.06

Documented Liver, imaging agent distribution at 60 min of CC(C)(C)n1ncc(CCc2ccc(COCCF)cc2)c(Cl)c1=O [Example 67M] : 0.43
